Tested on: MALME-3M melanoma
Test: NCI tumour cell line growth inhibition, 48 h; in the data active = GI50 below about 0.43 µM; inactive = the rest
Possible outcomes: active, inactive

# compound, target.desc, classification
rows = [
    ("CC12OC(C(=O)C13CC3)C1C(=O)c3ccccc3C(=O)C12 (stereo not drawn)", "MALME-3M melanoma", "inactive"),
    ("COc1cc[nH]c1/C=C1\\C(=O)Nc2ccc(F)c(C#C[C@@H](O)[C@@H](N)[C@@H](C)O)c21", "MALME-3M melanoma", "inactive"),
    ("COC(=O)[C@]12CC[C@@H](C)[C@H](C)[C@@H]1C1=CC[C@@H]3[C@@]4(C)CC(=O)[C@H](O)[C@@]5(C)COC(=C45)C[C@@]3(C)[C@]1(C)CC2", "MALME-3M melanoma", "inactive"),
    ("O=C(CCCc1c[nH]c2ccccc12)NC1CC(=O)c2c(Br)sc(Br)c21 (stereo not drawn)", "MALME-3M melanoma", "inactive"),
    ("COc1cc(-c2cc(C(=O)N3CCN(C(=O)c4ccccc4NCc4ccco4)CC3)nc3cc(-c4ccccc4)nn23)cc(OC)c1OC", "MALME-3M melanoma", "inactive"),
    ("Nc1cccc2c1C(=O)N(C1CCC(=O)NC1=O)C2=O (stereo not drawn)", "MALME-3M melanoma", "inactive"),
    ("COc1ccccc1C(=O)/C=C/c1cc2cccc(OC)c2[nH]c1=O", "MALME-3M melanoma", "active"),
    ("C[C@H]1[C@H](OC(=O)CCC(=O)O)O[C@@H]2O[C@]3(C)CC[C@H]4[C@H](C)CC[C@@H]1[C@@]24OO3", "MALME-3M melanoma", "inactive"),
]
